Data origin, for the record: the supplement of paper PMC13380429

test system: Vero E6 infected with SARS-CoV-2; test: SARS-CoV-2 infection rate relative to infected DMSO; higher = more infection, active = 60 or less; conditions: 24 h
Hi there, use one of these labels in your reply, thanks! 1.0 (active), 0.0 (inactive)

Past entries and their recorded results:
*Q* Given Cc1nc2ccccc2n1Cc1ccc(Cl)cc1 [chlormidazole] (10 µM) , state the outcome it received in this test.
*A* 0.0

*Q* Which result was noted for this compound in the test: Oc1nc(O)c2nc(O)[nH]c2n1 [uric-acid] (10 µM)
*A* 0.0

*Q* Please let me know the test result on file for Nc1ncnc2c1ncn2[C@H]1CC[C@@H](CO)O1 [dideoxyadenosine] (10 µM) .
*A* 0.0

*Q* Hi team, can someone confirm the assay call for O=C1CNC(=O)CN1 [piperazinedione] (0.833333 µM) ?
*A* 0.0

*Q* So what was the verdict on C=CC(=O)N1CCC(Oc2cc3c(Nc4ccc(Cl)c(Cl)c4F)ncnc3cc2OC)CC1 [poziotinib] (10 µM) in this test?
*A* 0.0

Further cases:
*Q* // param item: CC(=O)N1N=C(c2ccc(N)cc2)c2cc3c(cc2C[C@H]1C)OCO3 [talampanel] (10 µM) ; yields the recorded call
*A* 0.0

*Q* Given O=C(O)c1cn(-c2ccc(F)cc2)c2cc(N3CCNCC3)c(F)cc2c1=O [sarafloxacin] (10 µM) , state the outcome it received in this test.
*A* 0.0

*Q* Can you look up the reported call for NC(=O)[C@H]1CCS[C@@H]2C[C@]3(CCCN3C(=O)Cc3ccc(NC(=O)COc4ccc(Cl)cc4Cl)cc3)C(=O)N12 (10 µM) for me?
*A* 0.0

*Q* Check the results log: what was the call for COC(=O)[C@H](c1ccccc1Cl)N1CCc2sccc2C1 [clopidogrel] (10 µM) ?
*A* 0.0

*Q* What classification did Clc1ccc2c(c1)N=C(N1CCNCC1)c1ccccc1N2 [desmethylclozapine] (10 µM) end up with in this test?
*A* 1.0

*Q* Per the assay record, what outcome was assigned to C[C@@H](O)[C@H]1C(=O)N2C(C(=O)O)=C([C@H]3CCCO3)S[C@H]12 [faropenem] (10 µM) ?
*A* 0.0

*Q* Test call for this compound, please: OCCN1C[C@H](O)[C@@H](O)[C@H](O)[C@H]1CO [miglitol] (10 µM)
*A* 0.0

*Q* Name the outcome recorded for CN1CCN(c2cc3c(cc2F)c(=O)c(C(=O)O)cn3-c2ccc(F)cc2)CC1 [difloxacin] (10 µM) in the assay.
*A* 0.0

*Q* Dear all, I need the recorded test outcome for COc1ccc(N(C)c2nc(C)nc3ccccc23)cc1 [verubulin] (10 µM) , thank you.
*A* 0.0

*Q* Call for entry O=C(NCCCCN1CCN(c2cccc(Cl)c2Cl)CC1)c1ccc2c(c1)Cc1ccccc1-2 (10 µM) :
*A* 0.0

*Q* Could you kindly confirm the outcome this assay logged for NCc1c[nH]c(=S)n1[C@H]1CCc2c(F)cc(F)cc2C1 [nepicastat] (10 µM) ?
*A* 0.0
